Source listed as the supplement of paper PMC10567573.

- Test Name: protein stability index of a GFP-peptide fusion (GPS, HEK-293T) (PSI 1-6); higher = more stable;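 also: 24-mer peptide tiles fused after GFP, lentivirally expressed, FACS-sorted into six equal bins by GFP/DsRed ratio, decoded by Illumina sequencing, PSI is the read-weighted mean bin number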
- Settings: treatment: DMSO; c terminus: a fixed tail appended
# label = 1.0 if protein stability index >= 3 else 0.0

Here's what some known entries look like.
Can VHTKEQILELLVLEQFLAILPKEL [ZNF396] be said to have protein stability index at or above 3?
1.0

Textbook exercise: given the entry QNTHLTRHQRTHTGEKPYQCNICG [ZNF263] , state whether its protein stability index is greater than or equal to 3.
1.0

Identify whether the reported protein stability index of the following sequence is 3 or greater: GKEQSRRDDLEALGHMFMYFLRGS [CSNK1G3]
0.0

Does protein stability index meet or surpass 3 for SLSFEDELVYADDYIMDEDQSKLA [ESRRG] ?
1.0

---
Does protein stability index meet or surpass 3 for RFNQVLKNLLHAEFLRVQEERILH [VPS39] ?
0.0

Is protein stability index at least 3? Consider PRLKEDQPWMVIEGIRQTEYTLTG [FSD1]
1.0

###

- Test Name: protein stability index of a GFP-peptide fusion (GPS, HEK-293T) (PSI 1-6); higher = more stable
- Settings: treatment: MLN4924 1 uM, 8 h; c terminus: a fixed tail appended
Everything with protein stability index lower than 3 is Not satisfied; everything else, including exactly 3, is Satisfied.

Check out these entries, answers already filled in.
Reported protein stability index reaches at least 3 for MRDQYEQMAEKNRRDAETWFLSKT [KRT16] ?
Satisfied

# check: protein stability index of PPPPPPSRGGPPPPPPPPHNSGPP [WASL] is greater than or equal to 3
Satisfied

Tell me whether protein stability index is at least 3 here: FRGDDGIFDDNFIEERKQGLEQFI [SNX3]
Satisfied

// inclusive: protein stability index at least 3? input: LGLDDFESLKVIGRGAFGEVRLVQ [STK38L]
Satisfied

Is protein stability index at least 3? Consider SSSSSGVLMVGPNFRVGKKIGCGN [CSNK1G1]
Satisfied

Form field: protein stability index at least 3? Entry: SSSKRYTMSRSLDGASVNENHEIY [EPB41L3]
Satisfied

Does protein stability index meet or surpass 3 for AETDEHTGANTKKPEDTAEDLTAK [FAM9B] ?
Satisfied

Quick check: does DAFWWAVVSMTTVGYGDMYPVTIG [KCNA1] have protein stability index greater than or equal to 3?
Satisfied

Hi, just wondering whether CLDPIIYFFLCQPFREILCKKLHI [P2RY14] shows protein stability index of 3 or higher.
Satisfied

API: above_or_equal(metric=protein stability index, cutoff=3) for item VVAVHVVLALFVYVAWNEGSRQWR [VMA21]
Not satisfied

Next:
In plain terms: is recorded protein stability index at least 3 for LAAAHGHSEVVEELVSADVIDLFD [RIPK4] ?
Satisfied

Does protein stability index meet or surpass 3 for WDQVSRLHEVLTEVVPIHGRGNFP [TENT5C] ?
Not satisfied

Check if protein stability index >= 3 (inclusive). Item: ETKLHLLRQEMVNLRATDVRLMRQ [LURAP1L]
Satisfied

Reported protein stability index reaches at least 3 for RRENSTLDVECHEKEKHVNQLQTK [SASS6] ?
Satisfied

Is the recorded value of protein stability index equal to or greater than 3 for this sequence? ESLMKDGDKNNDGRIDFDEFLKMM [TNNC2]
Satisfied

Decide: protein stability index of QQYQSQAKQLFRKLNEQSPTRCTL [SEC22B] >= 3?
Satisfied

Is reported protein stability index greater than or equal to 3 here: AAQMMDIWVPIKIGALTYFAQADA [ACSBG2]
Not satisfied
